target: Neurogenic locus notch homolog protein 2 (Homo sapiens); assay: Notch2 binders on small-molecule microarrays, primary screen, biochemical, small-molecule microarray, 635 nm fluorescence, stem cell growth factors (AID 1073); conditions: Notch2 binding, higher = more signal
composite z-score: recorded values

{"columns": ["molecule", "target.system", "composite z-score"],
 "data": [
  ["Cc1ccc(S[C@]2(C(=O)NCCCN(C)C)CC(=O)N(C3CCCCC3)[C@@H]2c2ccc(CO)cc2I)cc1", "Neurogenic locus notch homolog protein 2 (Homo sapiens)", -0.197]
]}

Okay, next one:
I'd like to know its composite z-score. The molecule in question is "CCCC[C@@H]1C[C@H]1[C@@H](NC(=O)c1ccccc1)c1ccccc1C(F)(F)F"
1.13

====

assay: HepG2 liver cancer cell viability effects, profiling panel, resazurin fluorescence, 24 h, PK04 Diversity Set (AID 1172); details: higher = more signal; note: test concentration not given here
result.type: z-score
Just the number.

Below are worked cases with known answers.
{"columns": ["compound", "result.type", "observed.measurement"],
 "data": [
  ["Cc1ccc([C@@H]2CC=C(C(=O)O)[C@H](c3ccccc3)N2S(=O)(=O)c2ccc(C)cc2)cc1", "z-score", -1.02],
  ["O=C(CS)NCCCCCNC(=O)[C@H]1C[C@H]2C(=O)N3CCC[C@H]3C(=O)N2[C@H]1c1ccc(O)cc1", "z-score", 0.743]
]}

I'd like to know its z-score. The compound in question is "O=C1O[C@H](c2ccccc2)[C@H](c2ccccc2)N2[C@H]1[C@@H](C(=O)Nc1nc3ccccc3s1)[C@]1(C(=O)Nc3ccc(C#CC4(O)CCCCCC4)cc31)[C@H]2c1ccc(O)cc1"
-0.629

I'd like to know its z-score. The compound in question is "COC(=O)[C@@]1(Cc2ccccc2CN=[N+]=[N-])N=C(c2ccc(OCCCO)cc2)O[C@H]1c1ccccc1N=[N+]=[N-]"
-0.806

I'd like to know its z-score. The compound in question is O=C1C2C=CC(C(O)Cc3ccccc3)N(Nc3ccc([N+](=O)[O-])cc3)C2C(=O)N1c1ccccc1 (centres undefined)
-0.346

I'd like to know its z-score. The compound in question is "COc1cc(CO)cc(I)c1O[C@H]1C=C(C(=O)NCCO)C[C@@H](NCCc2c[nH]c3ccccc23)[C@@H]1O"
0.507

I'd like to know its z-score. The compound in question is "CO[C@H]1O[C@H](CO)[C@@H](OC(=O)Nc2ccccc2)[C@H](OC(=O)Nc2ccc3c(c2)OCO3)[C@@H]1OC(=O)Nc1ccc2c(c1)OCO2"
-0.667

====

composite z-score: recorded values
assay: small-molecule microarray binders of probe aShh, primary screen, biochemical, biotinylated probe, 635/667 nm fluorescence (AID 1114); conditions: higher = more signal;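 note: probe is biotin-labelled aShh protein from a stem cell growth factor screen; measures binding of labelled protein to compounds printed on the slide; score merges feature fluorescence at 667 nm with signal-to-noise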
Just the number.

{"columns": ["compound", "observed.measurement"],
 "data": [
  ["C=CCC(OC(C)=O)[C@@H]1[C@@H](N(Cc2ccc(-c3ccccc3)cc2)C(=O)c2ccc(C)cc2)c2cc(OCCCO)ccc2N1C(=O)c1ccc(-c2ccccc2)cc1 (stereo partly drawn)", 0.0611],
  ["C=CCN1C(=O)[C@]2(O[C@H](CCn3cc(CCO)nn3)[C@@H]([Si](C)(C)c3ccc(OC)cc3)[C@@H]2C)c2cc(NC(=O)c3ccc(OC)cc3)ccc21", 0.166]
]}

Okay, next one:
I'd like to know its composite z-score. The compound in question is CN1C(=O)C2C=CC(C(O)C3CC=CCC3)N(Nc3ccccc3)C2C1=O (stereo not drawn)
-0.0289

Sourced from PubChem BioAssay
